These data points were gathered from PubChem BioAssay AID1963430.

Test system: 521955-158-R2-J5-PDC complex spheroid growth, % test/control
Test: Anticancer human tumor 521955-158-R2-J5-PDC patient-derived pancreatic carcinoma cell line growth inhibition [Asc]
Assay conditions: second compound 1 µM; first compound 0.000316 µM; active compounds read low
# reported viability, T/C; entries follow
Give the number; % is assumed, so skip it.

Some molecules with known viability, T/C results, for comparison:
Cn1ncnc1[C@H]1c2n[nH]c(=O)c3cc(F)cc(c23)N[C@@H]1c1ccc(F)cc1 + Cc1c(S(C)(=O)=O)c(-c2cc(F)cc(N3CCN(c4ccc(NS(=O)(=O)c5ccc(NC(CCN6CCC(C(=O)OCCCP(=O)(O)O)CC6)CSc6ccccc6)c(S(=O)(=O)C(F)(F)F)c5)cc4)CC3)c2)c(-c2ccc(Cl)cc2)n1C(C)C    151
NC1CCC(NC2CC2c2ccccc2)CC1 (centres undefined) + Cc1c(S(C)(=O)=O)c(-c2cc(F)cc(N3CCN(c4ccc(NS(=O)(=O)c5ccc(NC(CCN6CCC(C(=O)OCCCP(=O)(O)O)CC6)CSc6ccccc6)c(S(=O)(=O)C(F)(F)F)c5)cc4)CC3)c2)c(-c2ccc(Cl)cc2)n1C(C)C    27.9
Cn1ncnc1[C@H]1c2n[nH]c(=O)c3cc(F)cc(c23)N[C@@H]1c1ccc(F)cc1 + CNC(C)C(=O)NC1CN(S(=O)(=O)c2cccc(S(=O)(=O)N3CCC4CCC(C(=O)NC(c5ccccc5)c5ccccc5)N4C(=O)C(NC(=O)C(C)NC)C3)c2)CCC2CCC(C(=O)NC(c3ccccc3)c3ccccc3)N2C1=O    108

Pending molecule:
Query string: Record lookup: for 521955-158-R2-J5-PDC complex spheroid growth, % test/control, what viability, T/C belongs to NC1CCC(NC2CC2c2ccccc2)CC1 (centres undefined) + CNC(C)C(=O)NC1CN(S(=O)(=O)c2cccc(S(=O)(=O)N3CCC4CCC(C(=O)NC(c5ccccc5)c5ccccc5)N4C(=O)C(NC(=O)C(C)NC)C3)c2)CCC2CCC(C(=O)NC(c3ccccc3)c3ccccc3)N2C1=O ?
Result string: 82

###

Examples of molecules with documented viability, T/C follow.
System: 521955-158-R2-J5-PDC complex spheroid growth, % test/control
Test: Anticancer human tumor 521955-158-R2-J5-PDC cell line growth inhibition [Asc];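 further: spheroids exposed to agents for 7 days before readout; 100% = DMSO vehicle control viability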
Assay conditions: second compound 0.1 µM; first compound 0.0949 µM; active compounds read low
Please respond with the number in % and leave the unit unwritten.

Study these solved cases before continuing.
NC(=O)C(=Cn1cnc(-c2cc(C(F)(F)F)cc(C(F)(F)F)c2)n1)c1cncnc1 + CNC(C)C(=O)NC1CN(S(=O)(=O)c2cccc(S(=O)(=O)N3CCC4CCC(C(=O)NC(c5ccccc5)c5ccccc5)N4C(=O)C(NC(=O)C(C)NC)C3)c2)CCC2CCC(C(=O)NC(c3ccccc3)c3ccccc3)N2C1=O    42.6
CCN1C(C(=O)NC23CCC(C(=O)O)(CC2)CC3)C(c2cccc(Cl)c2F)C2(C(=O)Nc3cc(Cl)ccc32)C12CCCCC2 (centres undefined) + Cc1c(S(C)(=O)=O)c(-c2cc(F)cc(N3CCN(c4ccc(NS(=O)(=O)c5ccc(NC(CCN6CCC(C(=O)OCCCP(=O)(O)O)CC6)CSc6ccccc6)c(S(=O)(=O)C(F)(F)F)c5)cc4)CC3)c2)c(-c2ccc(Cl)cc2)n1C(C)C    54.6
CCN1C(C(=O)NC23CCC(C(=O)O)(CC2)CC3)C(c2cccc(Cl)c2F)C2(C(=O)Nc3cc(Cl)ccc32)C12CCCCC2 (centres undefined) + CNC(C)C(=O)NC1CN(S(=O)(=O)c2cccc(S(=O)(=O)N3CCC4CCC(C(=O)NC(c5ccccc5)c5ccccc5)N4C(=O)C(NC(=O)C(C)NC)C3)c2)CCC2CCC(C(=O)NC(c3ccccc3)c3ccccc3)N2C1=O    97.2

Query string: If you can, please state the reported viability, T/C value of Cc1nc(N2CCC3(CC2)COC(C)C3N)c(CO)nc1Sc1ccnc(N)c1Cl (centres undefined) + CNC(C)C(=O)NC1CN(S(=O)(=O)c2cccc(S(=O)(=O)N3CCC4CCC(C(=O)NC(c5ccccc5)c5ccccc5)N4C(=O)C(NC(=O)C(C)NC)C3)c2)CCC2CCC(C(=O)NC(c3ccccc3)c3ccccc3)N2C1=O .
Result string: 58.9
